# Tested on: T47D (PI3Kα-H1047R) cell line
# ASSAY_METHOD_TEXT: HTRF phospho-AKT(S473) cell assay in T47D cells
# Format: cell-based, human
# ASSAY_SETUP: Homo sapiens; HTRF phospho-AKT(S473), T47D (PI3Kα-H1047R) cells, 2 hours compound incubation
pIC50: −log10 of the molar value.

| STRUCTURE_SMILES | pIC50 |
| --- | --- |
| Cc1cc([C@@H](C)Nc2ccc(Cl)nc2C(=O)NS(C)(=O)=O)c2nc(-c3ccc(OCCN4CCOCC4)cc3)n(C)c(=O)c2c1 | > 6.60 |
| Cc1cc([C@@H](C)Nc2ccc(Cl)nc2C(=O)NS(C)(=O)=O)c2nc(-c3cc4cn(C)nc4cn3)n(C)c(=O)c2c1 | 6.30 to 6.60 |
| Cc1cc([C@@H](C)Nc2ccc(Cl)nc2C(=O)NS(C)(=O)=O)c2nc(N3CCN(c4ncc(Cl)cn4)CC3)n(C)c(=O)c2c1 | 6.30 to 6.60 |
